Data origin, for the record: ChEMBL document CHEMBL1201862

system: MDA-MB-231; assay: NCI tumour cell line growth inhibition, 48 h
The source made the active and inactive calls. Rule as the data show it: active = GI50 up to about 1.1 µM and inactive = higher.
Listing of entries alongside the reported GI50.

{"columns": ["compound", "target.or.test.system", "GI50"],
 "data": [
  ["CC(C)(Cl)C(Br)CC/C(=C/CCl)CBr.CC(C)(Cl)C(Br)CC/C(=C\\CCl)CBr (stereo not drawn)", "MDA-MB-231", "1.74 µM (inactive)"],
  ["O=C(NC(C(F)(F)F)(C(F)(F)F)P(=O)(c1ccccc1)c1ccccc1)C(C(F)(F)F)C(F)(F)F", "MDA-MB-231", "24.2 µM (inactive)"],
  ["CC(C)=NOC(=O)OC[C@H]1O[C@@H](n2cnc3c(N)ncnc32)C(O)C1O (stereo partly drawn)", "MDA-MB-231", "> 100 µM (inactive)"],
  ["Cn1c(=O)c2nc(SCCN3CCOCC3)[nH]c2n(C)c1=S", "MDA-MB-231", "> 100 µM (inactive)"],
  ["C=C[C@]1(O)CCC[C@]2(C)C(=O)CCC12C (stereo partly drawn)", "MDA-MB-231", "> 100 µM (inactive)"],
  ["COc1cc([C@@H]2c3cc4c(cc3[C@@H](c3c(O)cc(O)c5c3O[C@H](c3ccc(O)c(O)c3)[C@@H](O)C5)[C@H]3COC(=O)[C@H]23)OCO4)cc(OC)c1OC", "MDA-MB-231", "1.67 µM (inactive)"],
  ["CC(C)C1=C(O)C(=O)C2=C(C1=O)C(OC=O)C(O)C1C(C)(C)CCCC21C (stereo not drawn)", "MDA-MB-231", "5.79 µM (inactive)"],
  ["O=c1oc2ccc([N+](=O)[O-])cc2c(Nc2ccc3c(c2)S(=O)(=O)c2ccccc2O3)c1[N+](=O)[O-]", "MDA-MB-231", "49.7 µM (inactive)"]
]}
